Target: T1, recombinant LILRB1 ECD (human, UniProt Q8NHL6 24-461)
T1 construct: also called biotinylated LILRB1 ECD
T1 sequence (Q8NHL6 24-461 limits assumed): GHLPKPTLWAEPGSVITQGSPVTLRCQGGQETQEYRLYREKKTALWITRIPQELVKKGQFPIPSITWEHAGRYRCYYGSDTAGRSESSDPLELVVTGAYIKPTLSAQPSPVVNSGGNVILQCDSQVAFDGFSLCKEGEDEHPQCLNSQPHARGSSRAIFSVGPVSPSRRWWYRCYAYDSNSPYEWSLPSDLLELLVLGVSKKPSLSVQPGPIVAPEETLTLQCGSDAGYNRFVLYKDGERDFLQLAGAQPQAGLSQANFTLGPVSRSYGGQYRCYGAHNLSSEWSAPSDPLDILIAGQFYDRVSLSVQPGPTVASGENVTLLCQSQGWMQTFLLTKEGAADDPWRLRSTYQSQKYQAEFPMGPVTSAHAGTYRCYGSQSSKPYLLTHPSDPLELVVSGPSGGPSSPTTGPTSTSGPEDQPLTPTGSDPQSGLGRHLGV
Assay: ELISA, LILRB1 ECD binding to HLA-G-Fc
Recorded metric: pIC50
Scale explanation: pIC50 corresponds to minus log10 of a concentration expressed in moles per litre.

Lab note: A-020 (antibody, V domains shown, tested as IgG) VH: QVQLVQSGAEVKKPGSSVKVSCKASGGTFQTYAISWVRQAPGQGLEWMGSIIPKFYQSNYAYKFQGRVTITADESTSTAYMELSSLRSEDTAVYYCAKDLGTYSSGWPYYYGMDVWGQGTTVTVSS VL: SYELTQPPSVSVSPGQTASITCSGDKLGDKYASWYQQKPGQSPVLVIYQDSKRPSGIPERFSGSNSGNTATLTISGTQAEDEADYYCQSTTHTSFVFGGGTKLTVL gave pIC50 of 8.43

Lab note: A-037 (antibody, V domains shown, tested as IgG) VH: QVQLVQSGAEVKKPGSSVKVSCKASGGTFSSYAISWVRQAPGQGLEWMGGIIPIFGTANYAQKFQGRVTITADESTSTAYMELSSLRSEDTAVYYCARVHLYYHFPASYFDYWGQGTLVTVSS VL: SYELTQPPSVSVSPGQTASITCSGDKLGDKYASWYQQKPGQSPVLVIYQDSKRPSGIPERFSGSNSGNTATLTISGTQAEDEADYYCLASLGTGGVYVFGGGTKLTVL gave pIC50 of 8.42

Lab note: A-012 (antibody, V domains shown, tested as IgG) VH: QVQLVQSGAEVKKPGSSVKVSCKASGGTISEYAFLWVRQAPGQGLEWMGGIIPKFHTANYAQKFQGRVTITADESTSTAYMELSSLRSEDTAVYYCAKDLGTYSSGWPYYYGMDVWGQGTTVTVSS VL: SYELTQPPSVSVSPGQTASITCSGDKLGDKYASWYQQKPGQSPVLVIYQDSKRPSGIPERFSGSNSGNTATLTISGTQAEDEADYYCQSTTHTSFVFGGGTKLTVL gave pIC50 of 8.48

Source listed as patent US20260209345A1.
